- Test Description: inhibition of 3D7 malaria parasite growth – strain 3D7 (AID 2306);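 also: 0% = DMSO wells and 100% = chloroquine plus artemisinin control wells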
- Protocol Conditions: P. falciparum 3D7 erythrocytic growth, LDH absorbance, 72 h; at 2 µM; hits give high values
Value Kind: growth inhibition (%)

INSERT INTO assay_data (compound, value_kind, unit_of_measurement, reading) VALUES
  ('Cc1[nH]c(C)c(-c2ccc(-c3ccccc3)nc2)c(=O)c1Br', 'growth inhibition', '%', 96),
  ('CCN(CC)Cc1cccc(-c2cc3c(-c4ccc(C(=O)O)c(C(C)C)c4)ccnc3[nH]2)c1OC', 'growth inhibition', '%', 99),
  ('FC(F)(F)c1ccc(-c2ccc(CNC3CCN(CCN4CCOCC4)CC3)cc2)cc1', 'growth inhibition', '%', 103),
  ('COc1nc(-n2ccc(=N)cc2)nc2ccccc12', 'growth inhibition', '%', 90),
  ('Cc1cc(F)ccc1N(c1nc(-c2cc(Cl)ccc2Cl)cs1)C1CCNC1 (stereo not given)', 'growth inhibition', '%', 99),
  ('Fc1ccc2nc(-c3ccc(-c4ccc(CN5CCCCC5)cc4)s3)[nH]c2c1', 'growth inhibition', '%', 92),
  ('CN1CCN(c2ccnc3ccc(NC(=O)Nc4cccc5ccccc45)cc23)CC1', 'growth inhibition', '%', 101),
  ('COc1ccc(C2=CCN(c3ccc(Cl)c(Cl)c3)C2=O)cc1OCCN1CCCCC1', 'growth inhibition', '%', 97),
  ('COc1ccc2c(c1)Nc1ccc(Cl)cc1C2N (stereo not given)', 'growth inhibition', '%', 101),
  ('CCN(CCCN1CCCCC1)c1cc(C)nc(Nc2ccc(C)c(C)c2)n1', 'growth inhibition', '%', 101);

----------
- Test Description: HepG2 cytotoxicity, primary screen, cytotoxicity control for P. falciparum antimalarial project, cell-based, ATP luminescence (AID 2303);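 also: 0% = DMSO wells and 100% = digitonin-killed cells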
- Protocol Conditions: HepG2 viability, 24-48 h, at 10 µM, hits give high values
Entries annotated with measured inhibition
Value Kind: inhibition (%)

INSERT INTO measurements (compound, unit_of_measurement, reading) VALUES
  ('N#Cc1ccc(CN2CCC(Oc3ccc(NC(=O)c4cccs4)cc3)C2)cc1 (centres undefined)', '%', 5),
  ('CC[C@H](NC(=O)c1c(CN2CCC(N3CCCCC3)CC2)c(-c2ccccc2)nc2c(Cl)c(O)ccc12)c1ccccc1', '%', -1),
  ('O=C(NCc1ccccc1S(=O)c1ccccc1CO)C(F)(F)F (centres undefined)', '%', 50),
  ('COc1cccc(C(=O)Nc2nonc2-c2ccc(OC)c(OC)c2)c1', '%', 7),
  ('O=C(/C=C/c1ccc(F)c(Br)c1)NCCCCCN1CCC(c2c[nH]c3ccccc23)CC1', '%', 39),
  ('CN(CCc1ccccc1)c1ncc(-c2cccc(CNCCC3CCCN3C)c2)cn1 (centres undefined)', '%', 99),
  ('Cc1nc(C)c(CC(=O)Nc2ccc(-c3cccc(-c4nc5ccc(C(F)(F)F)cc5[nH]4)c3)cc2)s1', '%', 67),
  ('COc1ccccc1N1CCN(CCCCNC(=O)c2ccc(NC(=O)c3cc4ccccc4o3)cc2)CC1', '%', 9),
  ('Cc1cccc2[nH]c(-c3cccc(-c4cccc(NC(=O)c5cnc[nH]5)c4)c3)nc12', '%', 2);

----------
Form field: inhibition (one value per entry).
- Experimental System: L-lactate dehydrogenase (Plasmodium falciparum (isolate CDC / Honduras)) (UniProt Q27743)
- Sequence (Q27743 whole entry, looked up): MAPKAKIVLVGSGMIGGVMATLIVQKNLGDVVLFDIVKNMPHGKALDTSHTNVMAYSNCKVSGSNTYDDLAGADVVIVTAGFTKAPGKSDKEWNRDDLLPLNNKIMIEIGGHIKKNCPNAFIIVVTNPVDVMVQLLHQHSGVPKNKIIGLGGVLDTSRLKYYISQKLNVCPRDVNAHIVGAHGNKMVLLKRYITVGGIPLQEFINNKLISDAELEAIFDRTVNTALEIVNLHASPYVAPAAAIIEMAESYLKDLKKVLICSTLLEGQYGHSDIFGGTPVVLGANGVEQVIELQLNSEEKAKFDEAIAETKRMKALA
- Test Description: PfLDH activity inhibition – cell lysate, 3D7 strain, counter-screen for P. falciparum growth inhibition project (AID 2304);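 also: 0% = vehicle and 100% = reference inhibitor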
- Protocol Conditions: P. falciparum 3D7 crude extract, LDH APAD/NBT absorbance; at 2 µM; hits give high values
Value Kind: inhibition (%)

INSERT INTO results (molecule, value_kind, unit_of_measurement, reading) VALUES
  ('O=C(Nc1ccc(C(F)(F)F)cc1)c1cccc(S(=O)(=O)NC2CCN(Cc3ccccc3)C2)c1 (stereo not drawn)', 'inhibition', '%', -5),
  ('CCOc1cc(C(=O)NC2CCN(Cc3ccccc3)CC2)ccc1-c1nc2cc(Cl)c(Cl)cc2[nH]1', 'inhibition', '%', 2),
  ('COc1ccc(CN2CCCN(Cc3cccc(NC(=O)c4ccc(Cl)c(Cl)c4)c3)CC2)cc1', 'inhibition', '%', 5),
  ('CCCCCC(NCCCC)c1ccc(OCCOc2ccc(C(CCCCC)NCCCC)cc2)cc1 (stereo not drawn)', 'inhibition', '%', -2),
  ('CC[C@H](NC(=O)c1c(CN2CCC(N3CCCCC3)CC2)c(-c2ccccc2)nc2c(Cl)c(O)ccc12)c1ccccc1', 'inhibition', '%', -3),
  ('NC(=NCc1ccc(Cl)c(Cl)c1)NC(=NCCCCCCN=C(NC(N)=NCc1ccc(Cl)c(Cl)c1)N1CCCCC1)N1CCCCC1', 'inhibition', '%', -5),
  ('Oc1ccc2c(c1NCC1CCCCC1)CCCC2', 'inhibition', '%', 0),
  ('O=C(Nc1ccccc1)NC1CCN(CCC2(c3ccc(Cl)c(Cl)c3)COCN(C(=O)c3ccccc3)C2)C1 (stereo not drawn)', 'inhibition', '%', 3),
  ('CCc1c(C)nc(-n2nc(C)cc2NC(=O)C2c3ccccc3Oc3ccccc32)[nH]c1=O', 'inhibition', '%', 1),
  ('CCc1ccc(CN2CCC(C(=O)Nc3ccc(-c4nc5ccccc5[nH]4)cc3)CC2)o1', 'inhibition', '%', -4),
  ('COc1ccccc1C1CCN(CCCCNC(=O)c2ccc(/C=C/c3cc(Cl)cc(Cl)c3)cc2)CC1', 'inhibition', '%', 9),
  ('CC(=O)Nc1ccc(S(=O)(=O)Nc2ccc(Nc3nc(C)cc(N4CCCCC4)n3)cc2)cc1', 'inhibition', '%', 0),
  ('COc1cc2c(cc1OC)CN(CCCCNC(=O)c1ccc(NC(=O)c3cc(Cl)cc(Cl)c3)cc1)CC2', 'inhibition', '%', -6),
  ('COc1ccc2nc(SC(C)C(=O)c3c[nH]c4ccccc34)[nH]c2c1 (stereo not drawn)', 'inhibition', '%', 0),
  ('CCNc1cc(C(=O)N[C@@H](Cc2ccccc2)[C@H](O)CN[C@@H]2CCc3ccccc32)cc(N2CCCCS2(=O)=O)c1', 'inhibition', '%', 4),
  ('O=C(Nc1ccc(-c2oc(C(=O)NCCc3cccc(Cl)c3)cc2-c2ccncc2)cc1)Nc1cccc(Cl)c1', 'inhibition', '%', -1),
  ('Cc1cc2c3c(N)nc(N)nc3ccc2n1C(C)C', 'inhibition', '%', 2),
  ('COc1ccc(O)c(C(=O)c2cc(C#N)c(=O)n(-c3ccc(Oc4ccccc4)cc3)c2)c1', 'inhibition', '%', 5),
  ('Cc1nc(-c2cccc(C(F)(F)F)c2)n2nc(Nc3ccc(OCCN4CCCC4)cc3)ncc12', 'inhibition', '%', -3),
  ('c1ccc(CN2CCN(CCNc3c4ccccc4nc4ccccc34)CC2)cc1', 'inhibition', '%', 9),
  ('CC(C)Cc1cn(-c2nc(-c3nc4ccccc4[nH]3)cs2)c2cc(Cl)ccc12', 'inhibition', '%', -3),
  ('COc1ccc2c(NN=Cc3ccccn3)ccnc2c1', 'inhibition', '%', -2),
  ('COc1ccc(OC)c(Cc2cnc3nc(N)nc(N)c3c2C)c1', 'inhibition', '%', 5),
  ('Cc1cc(NCCCCCCCCNc2cc(C)nc3ccccc23)c2ccccc2n1', 'inhibition', '%', -1),
  ('Cc1ccc2nc(C)cc(NN=Cc3cccc(F)c3)c2c1', 'inhibition', '%', -1),
  ('O=[N+]([O-])c1cccc(NC(=S)N2CCCN(Cc3ccc(Cl)cc3Cl)CC2)c1', 'inhibition', '%', 4),
  ('Cc1cc(NC(=O)Nc2cccc(C#N)c2)c2ccccc2n1', 'inhibition', '%', -1),
  ('COc1ccc(O)c(C(=O)c2cnc3c(c2)c(-c2ccc(F)cc2)c(C#N)c(=O)n3C)c1', 'inhibition', '%', -2),
  ('COc1cccc(C23N=C(Nc4nc5ccccc5[nH]4)NC2(c2cccc(OC)c2)NC(Nc2nc4ccccc4[nH]2)=N3)c1 (stereo not drawn)', 'inhibition', '%', 3),
  ('COc1ccc(Nc2nccc(-c3ccc4ccnc(NCCCCN)c4c3)n2)cc1', 'inhibition', '%', 6),
  ('c1cncc(CN2CCCN(c3ccc4c(c3)CCN(Cc3ccc(-c5ncc[nH]5)cc3)CC4)CC2)c1', 'inhibition', '%', 2),
  ('CN(C(=O)c1ccccc1)[C@@H]1c2cc(C#N)ccc2OC(C)(C)[C@H]1O', 'inhibition', '%', -3),
  ('O=C1C([N+](=O)[O-])=C(O)c2cccc(F)c21', 'inhibition', '%', 0),
  ('COc1ccc2cc(-c3nc(-c4c(Cl)cccc4Cl)[nH]c3-c3ccnc(NCCCN4CCN(C)CC4)c3)ccc2c1', 'inhibition', '%', -5),
  ('O=C(Nc1ccc(OC2CCN(Cc3ccc(F)cc3)C2)c(Cl)c1)c1ccc(F)cc1 (stereo not drawn)', 'inhibition', '%', -3),
  ('Cc1cccc(CN2CCCN(Cc3ccc(C(=O)Nc4ccc(C)c(F)c4)cc3)CC2)c1', 'inhibition', '%', -4),
  ('CC(C)c1ccc2oc(-c3ccc(NC(=O)c4ccc([N+](=O)[O-])o4)cc3)nc2c1', 'inhibition', '%', 6),
  ('Oc1ccc2ccccc2c1CNC1CCCCCC1', 'inhibition', '%', 5);
